Assay: Quantitative High-Throughput drug screen in 47 multiple myeloma cell lines against the NCATS MIPE library collection: Karpas25_ECACC cell viability assay (AID 1918968; note: nearly all actives have a fitted effect of over 35% in size)
Settings: Karpas25 myeloma viability, CellTiter-Glo ATP, 48 h; series mostly up to 45.8 µM
From the text: PI: Beverly A. Mock Ph.D. Laboratory of Cancer Biology and Genetics, Center for Cancer Research, National Cancer Institute, National Institute of Health, Bethesda, Maryland […] 5; Detector; 425V; Luminescence; Viewlux PerkinElmer. […] 1. […] Briefly, the corresponding myeloma cell lines were screened in 1,536-well plates with 500 cells, 5-uL per well for inhibition of cell viability (assessed by measuring ATP levels with CellTiterGlo). […]
Records with an inconclusive call do not appear. The source made the active and inactive calls. Calls come from the whole dose curve; as a rule, active = well fitted cell-killing curve with a large enough effect; inconclusive = small, poorly fitted or top-dose-only effect, or effect the other way; inactive = no such curve, though single readings can be large or run the other way.
Hi! Could you answer with just one of these? true = active, false = inactive

Solved entries:
[
  {
    "MOLECULE": "COc1ccc(-c2ccc3c(N4CCOC[C@H]4C)nc(N4CCOC[C@H]4C)nc3n2)cc1CO",
    "ASSIGNED_CATEGORY": "true"
  },
  {
    "MOLECULE": "CN(C)c1ccc(C2Nc3ccc4ccccc4c3C3=C2C(=O)CC(C)(C)C3)cc1Br (stereo not given)",
    "ASSIGNED_CATEGORY": "true"
  },
  {
    "MOLECULE": "NS(=O)(=O)c1cc2c(cc1Cl)NC=NS2(=O)=O",
    "ASSIGNED_CATEGORY": "false"
  },
  {
    "MOLECULE": "CN(C)c1ccc(Nc2nc(N)n(C(=O)c3c(F)cccc3F)n2)cc1",
    "ASSIGNED_CATEGORY": "true"
  },
  {
    "MOLECULE": "CCc1cncnc1N1CCN(Cc2nc3ccc(C(F)(F)F)cc3[nH]2)CC1",
    "ASSIGNED_CATEGORY": "true"
  },
  {
    "MOLECULE": "Clc1cccc(Cl)c1NC1=NCCN1",
    "ASSIGNED_CATEGORY": "false"
  },
  {
    "MOLECULE": "CC(=O)Oc1ccccc1C(=O)O",
    "ASSIGNED_CATEGORY": "false"
  },
  {
    "MOLECULE": "O=C1[C@H](Cc2ccc(O)cc2)N2C(=O)CCN(C(=O)NCc3ccccc3)[C@H]2CN1Cc1cccc2ccccc12",
    "ASSIGNED_CATEGORY": "true"
  },
  {
    "MOLECULE": "CCn1c(-c2nonc2N)nc2cnc(Oc3cccc(NC(=O)c4ccc(OCCN5CCOCC5)cc4)c3)cc21",
    "ASSIGNED_CATEGORY": "true"
  }
]

Now for another entry.
Short answer needed: outcome of this test for Cn1c(=O)c(F)c(Nc2ccc(I)cc2F)c2c(=O)n(C[C@@H](O)CO)cnc21 ?
true
